test system: ATP; test: switch fluorescence ratio, 500 uM ATP over buffer (Cy3 cluster intensity, sum of 5 cycles each) (fold (ratio)); higher = stronger signal-on switching upon ATP binding; sequences stand for … in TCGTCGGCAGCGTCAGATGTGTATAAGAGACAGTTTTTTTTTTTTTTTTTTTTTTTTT…TC; conditions: aptamer strand: ATP DNA aptamer (quencher-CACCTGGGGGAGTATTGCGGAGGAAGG + anchor), 100 nM annealed; ATP concentration: 500 uM;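 also: ATP exposure 15 min at 22 °C before imaging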
test.readout: switch fluorescence ratio
Lab note: record the figure alone, no unit after it.

[ask] Dear colleague, I am looking for the recorded switch fluorescence ratio of the following sequence: GTTTTCTTAT
[reply] 0.998

Provenance of the data: the supplement of paper PMC10126150
